# System: HeLa
# Test details: Antiproliferative activity against BRCA1 deficient human HeLa cells after 7 days by cell titer-blue assay
# Format: functional
# Test settings: 168 h
Each entry below carries its reported CC50.
Quick reminder: number only, in nM, skip the unit.

// known answers, use as guide
> print(dat)
                        chemical.structure  quantity.kind  observed.measurement
1  CC(C)NCc1ccc(-n2cc3cccc(C(N)=O)c3n2)cc1           CC50                  2000
2   CN(C)Cc1ccc(-n2cc3cccc(C(N)=O)c3n2)cc1           CC50                   520

// moving on: another record for CC50
# return CC50 of NC(=O)c1cccc2cn(-c3ccc(CN4CCCC4)cc3)nc12 (system: HeLa)
1200

----------
# Measurement target: PARP 1, 2 and 3 (Homo sapiens, UniProt P09874+Q9Y6F1+Q9UGN5)
# Test details: Inhibition of PARP in hydrogen peroxide-induced human HeLa cells assessed as inhibition DNA-damage-induced PARylation
# Assay type: cell-based
Quantity kind: EC50 (nM)
Quick reminder: number only, in nM, skip the unit.

// known answers, use as guide
> print(dat)
                                   compound  observed.measurement
1      CCNCc1ccc(-n2cc3cccc(C(N)=O)c3n2)cc1                   150
2        NC(=O)c1cccc2cn(-c3ccc(Cl)cc3)nc12                   720
3  CNC(C)c1ccc(-n2cc3cccc(C(N)=O)c3n2)cc1 (centres undefined)                    58
4   CC(C)NCc1ccc(-n2cc3cccc(C(N)=O)c3n2)cc1                   700
5  CN1CCN(Cc2ccc(-n3cc4cccc(C(N)=O)c4n3)cc2)CC1                  1100
6  CNC(C)(C)c1ccc(-n2cc3cccc(C(N)=O)c3n2)cc1                   110

Report measured EC50; entry is CNCc1ccc(-n2cc3cccc(C(N)=O)c3n2)cc1
68

Report measured EC50; entry is NC(=O)c1cccc2cn(-c3ccccc3)nc12
3700

Report measured EC50; entry is NC(=O)c1cccc2cn(-c3cccc(Cl)c3)nc12
450

----------
# System: HeLa
# Test details: Antiproliferative activity against BRCA1 deficient human HeLa cells after 7 days by cell titer-blue assay
# Type: functional
# Test settings: 168 h
Field 'label' (enum: TRUE / FALSE). Set to TRUE when CC50 is strictly under 200 nM; else FALSE.

> print(dat)
                                   compound  classification
1      CNCCc1ccc(-n2cc3cccc(C(N)=O)c3n2)cc1           FALSE
2  NC(=O)c1cccc2cn(-c3ccc(C4CCCNC4)cc3)nc12 (stereo unspecified)            TRUE
3  CN1CCN(Cc2ccc(-n3cc4cccc(C(N)=O)c4n3)cc2)CC1           FALSE
4  NC(=O)c1cccc2cn(-c3ccc(C4CCCN4)cc3)nc12 (stereo unspecified)            TRUE
5       CNCc1cccc(-n2cc3cccc(C(N)=O)c3n2)c1           FALSE

Now consider a different compound.
Is it true that CC50 reported for NC(=O)c1cccc2cn(-c3ccc4c(c3)CNCC4)nc12 is less than 200 nM?
TRUE

----------
# Test system: HeLa
# Test details: Selectivity index, ratio of CC50 for BRCA1 proficient human HeLa cells to CC50 for BRCA1 deficient human HeLa cells
# Assay type: functional
Binary call on Selectivity Index: 1 from 10 upward, 0 beneath that.

Example results:
> print(dat)
                         chemical.structure  measurement.target  classification
1    NC(=O)c1cccc2cn(-c3ccc4c(c3)CCNC4)nc12                HeLa               1
2    NC(=O)c1cccc2cn(-c3ccc4c(c3)CNCC4)nc12                HeLa               1
3  NC(=O)c1cccc2cn(-c3ccc(CN4CCCCC4)cc3)nc12                HeLa               0
4  NC(=O)c1cccc2cn(-c3ccc(CN4CCCC4)cc3)nc12                HeLa               0

Now consider a different compound.
Test whether the compound CN1CCN(Cc2ccc(-n3cc4cccc(C(N)=O)c4n3)cc2)CC1 records Selectivity Index of 10 or higher.
0

----------
# Measurement target: UniProt P04799
# Sequence (P04799 whole entry): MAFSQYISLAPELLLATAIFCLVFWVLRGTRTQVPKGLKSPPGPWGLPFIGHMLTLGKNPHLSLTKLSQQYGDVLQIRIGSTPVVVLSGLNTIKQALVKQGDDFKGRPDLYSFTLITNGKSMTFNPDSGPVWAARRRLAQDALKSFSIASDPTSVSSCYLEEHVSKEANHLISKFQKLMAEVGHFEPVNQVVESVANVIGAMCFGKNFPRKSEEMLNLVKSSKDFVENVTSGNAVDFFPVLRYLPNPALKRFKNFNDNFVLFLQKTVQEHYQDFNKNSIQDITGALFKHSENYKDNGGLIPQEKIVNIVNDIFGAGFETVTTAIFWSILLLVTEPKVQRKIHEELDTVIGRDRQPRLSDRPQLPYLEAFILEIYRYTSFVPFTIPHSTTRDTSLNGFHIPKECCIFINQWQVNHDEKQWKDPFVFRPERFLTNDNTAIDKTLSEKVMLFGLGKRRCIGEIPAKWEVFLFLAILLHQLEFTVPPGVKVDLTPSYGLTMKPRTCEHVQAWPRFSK
# Test details: Intrinsic clearance in rat liver microsomes assessed per mg of protein up to 60 mins in presence of rat recombinant CYP1A2
# Assay type: ADME, Microsome
# Test settings: microsomes, 1 h
Each entry below carries its reported CL.
Quick reminder: number only, in µL/min/mg, skip the unit.

// known answers, use as guide
> print(dat)
                                   molecule  observed.measurement
1  NC(=O)c1cccc2cn(-c3ccc(C4CCCNC4)cc3)nc12 (stereo not given)                   0.3
2  CNC(C)(C)c1ccc(-n2cc3cccc(C(N)=O)c3n2)cc1                   0.4
3    NC(=O)c1cccc2cn(-c3ccc4c(c3)CCNC4)nc12                   0.7
4  NC(=O)c1cccc2cn(-c3ccc([C@@H]4CCCNC4)cc3)nc12 [NIRAPARIB]                   0.3

# return CL of CN(C)Cc1ccc(-n2cc3cccc(C(N)=O)c3n2)cc1 (system: UniProt P04799)
8.7

----------
# Test details: Intrinsic clearance in rat liver microsomes assessed per mg of protein up to 90 mins
# Assay type: ADME, Microsome
Field 'label' (enum: Y / N). Set to Y when microsomal CLint is strictly under 20 µL/min/mg; else N.

Example results:
> print(dat)
                                    molecule  classification
 1  CN1CCN(Cc2ccc(-n3cc4cccc(C(N)=O)c4n3)cc2)CC1               N
 2  NC(=O)c1cccc2cn(-c3ccc(C4CCCNC4)cc3)nc12 (stereo unspecified)               Y
 3  NC(=O)c1cccc2cn(-c3ccc(C4CCCN4)cc3)nc12 (stereo unspecified)               N
 4  CNC(C)(C)c1ccc(-n2cc3cccc(C(N)=O)c3n2)cc1               Y
 5  NC(=O)c1cccc2cn(-c3ccc(C4CCNCC4)cc3)nc12               Y
 6            NC(=O)c1cccc2cn(-c3ccccc3)nc12               N
 7  NC(=O)c1cccc2cn(-c3ccc([C@@H]4CCCNC4)cc3)nc12               Y
 8       CNCc1ccc(-n2cc3cccc(C(N)=O)c3n2)cc1               N
 9    NC(=O)c1cccc2cn(-c3ccc4c(c3)CNCC4)nc12               N
10    CN(C)Cc1ccc(-n2cc3cccc(C(N)=O)c3n2)cc1               N

Is it true that microsomal CLint reported for NC(=O)c1cccc2cn(-c3ccc(CN4CCCCC4)cc3)nc12 is less than 20 µL/min/mg?
N

Is it true that microsomal CLint reported for NC(=O)c1cccc2cn(-c3ccc([C@H]4CCCNC4)cc3)nc12 is less than 20 µL/min/mg?
Y

Is it true that microsomal CLint reported for CNC(C)c1ccc(-n2cc3cccc(C(N)=O)c3n2)cc1 (stereo unspecified) is less than 20 µL/min/mg?
Y

Is it true that microsomal CLint reported for NC(=O)c1cccc2cn(-c3ccc4c(c3)CCNC4)nc12 is less than 20 µL/min/mg?
N

Is it true that microsomal CLint reported for CNCc1cccc(-n2cc3cccc(C(N)=O)c3n2)c1 is less than 20 µL/min/mg?
N

Is it true that microsomal CLint reported for CC(C)NCc1ccc(-n2cc3cccc(C(N)=O)c3n2)cc1 is less than 20 µL/min/mg?
Y

----------
# Test details: Plasma clearance in rat
# Format: ADME, organism-based
Binary call on clearance: Fulfilled from 60 mL/min/kg upward, Not fulfilled beneath that.

Example results:
> print(dat)
                                   compound  classification
1       CNCc1cccc(-n2cc3cccc(C(N)=O)c3n2)c1       Fulfilled
2  NC(=O)c1cccc2cn(-c3ccc(C4CCCNC4)cc3)nc12 (configuration not stated)   Not fulfilled
3  NC(=O)c1cccc2cn(-c3ccc(CN4CCCCC4)cc3)nc12       Fulfilled

Test whether the compound NC(=O)c1cccc2cn(-c3ccc4c(c3)CNCC4)nc12 records clearance of 60 mL/min/kg or higher.
Fulfilled

Test whether the compound CNCc1ccc(-n2cc3cccc(C(N)=O)c3n2)cc1 records clearance of 60 mL/min/kg or higher.
Fulfilled

Test whether the compound CC(C)NCc1ccc(-n2cc3cccc(C(N)=O)c3n2)cc1 records clearance of 60 mL/min/kg or higher.
Fulfilled

Test whether the compound NC(=O)c1cccc2cn(-c3ccc([C@@H]4CCCNC4)cc3)nc12 records clearance of 60 mL/min/kg or higher.
Not fulfilled
